System: MDA-MB-453
METHOD DESCRIPTION: normalised response (% of control), CellTox Green; higher = less cell death (100 = DMSO, 0 = benzethonium chloride kill control)
PARTICULARS: incubation time: 72 h
Listing: normalised response of selected compounds
Reply with just the number (in %).

Completed entries (count: 5):
COMPOUND | normalised response [%]
O=C(c1ccc(C(=O)N2CCC(N3CCCC3)CC2)c(Nc2ccccc2)c1)N1CCC(N2CCCC2)CC1 [UNC1215] (30000 nM) | 102
Cc1ccc(F)c(NC(=O)Nc2ccc(-c3cccc4[nH]nc(N)c34)cc2)c1 [Linifanib] (100 nM) | 108
Cc1ccc(F)c(NC(=O)Nc2ccc(-c3cccc4[nH]nc(N)c34)cc2)c1 [Linifanib] (10 nM) | 108
CN1CCC(COc2cnc(-c3cccc(Cn4nc(-c5cccc(C#N)c5)ccc4=O)c3)nc2)CC1 (10 nM) | 100
O=C(c1ccc(C(=O)N2CCC(N3CCCC3)CC2)c(Nc2ccccc2)c1)N1CCC(N2CCCC2)CC1 [UNC1215] (3000 nM) | 99.2

input: Entry CS(=O)(=O)c1ccc(C(=O)Nc2ccc(Cl)c(-c3ccccn3)c2)c(Cl)c1 [Vismodegib] (10000 nM) , system MDA-MB-453: what normalised response was measured?
output: 80.9

input: Entry C=CCNC1=C2C[C@@H](C)C[C@H](OC)[C@H](O)[C@@H](C)/C=C(\C)[C@H](OC(N)=O)[C@@H](OC)/C=C\C=C(/C)C(=O)NC(=CC1=O)C2=O [Tanespimycin] (100 nM) , system MDA-MB-453: what normalised response was measured?
output: 84.5

* * *

Test system: SK-BR-3
METHOD DESCRIPTION: drug sensitivity score (DSS), CellTiter-Glo (DSS (AUC-based score)); higher = stronger drug effect (viability inhibition or cytotoxicity); extreme values may be limits of the assay
PARTICULARS: incubation time: 72 h
If the reported drug sensitivity score equals or exceeds 10, assign Satisfied. If not, assign Not satisfied.

SMILES DATA | ASSAYED TARGET | CAT
CN(C)C/C=C/C(=O)Nc1cc2c(Nc3ccc(F)c(Cl)c3)ncnc2cc1O[C@H]1CCOC1 | SK-BR-3 | Satisfied
Cc1c2oc3c(C)ccc(C(=O)N[C@@H]4C(=O)N[C@H](C(C)C)C(=O)N5CCC[C@H]5C(=O)N(C)CC(=O)N(C)[C@@H](C(C)C)C(=O)O[C@@H]4C)c3nc-2c(C(=O)N[C@@H]2C(=O)N[C@H](C(C)C)C(=O)N3CCC[C@H]3C(=O)N(C)CC(=O)N(C)[C@@H](C(C)C)C(=O)O[C@@H]2C)c(N)c1=O | SK-BR-3 | Satisfied
Cc1ccc(F)c(NC(=O)Nc2ccc(-c3cccc4[nH]nc(N)c34)cc2)c1 | SK-BR-3 | Not satisfied
CS(=O)(=O)c1ccc(C(=O)Nc2ccc(Cl)c(-c3ccccn3)c2)c(Cl)c1 | SK-BR-3 | Not satisfied
CC[C@]1(O)C[C@@H]2CN(CCc3c([nH]c4ccccc34)[C@@](C(=O)OC)(c3cc4c(cc3OC)N(C)[C@H]3[C@@](O)(C(=O)OC)[C@H](OC(C)=O)[C@]5(CC)C=CCN6CC[C@]43[C@@H]65)C2)C1 | SK-BR-3 | Satisfied

Please look at the following molecule next.
input: Does the molecule `Nc1ccn([C@@H]2O[C@H](CO)[C@@H](O)[C@@H]2O)c(=O)n1` have recorded drug sensitivity score that is 10 or more?
output: Satisfied

* * *

Listing: normalised response of selected compounds
System: HCC1937
METHOD DESCRIPTION: normalised response (% of control), CellTox Green; higher = less cell death (100 = DMSO, 0 = benzethonium chloride kill control)
PARTICULARS: incubation time: 72 h
A bare number is not enough; add the unit after it.

Completed entries (count: 4):
COMPOUND | ASSAYED TARGET | normalised response
CN(C)C/C=C/C(=O)Nc1cc2c(Nc3ccc(F)c(Cl)c3)ncnc2cc1O[C@H]1CCOC1 [Afatinib] (10 nM) | HCC1937 | 113%
Nc1nc(Cl)nc2c1ncn2[C@H]1C[C@H](O)[C@@H](CO)O1 [Cladribine] (1000 nM) | HCC1937 | 92.2%
CS(=O)(=O)c1ccc(C(=O)Nc2ccc(Cl)c(-c3ccccn3)c2)c(Cl)c1 [Vismodegib] (10000 nM) | HCC1937 | 84.1%
CC[C@]1(O)C[C@@H]2CN(CCc3c([nH]c4ccccc34)[C@@](C(=O)OC)(c3cc4c(cc3OC)N(C)[C@H]3[C@@](O)(C(=O)OC)[C@H](OC(C)=O)[C@]5(CC)C=CCN6CC[C@]43[C@@H]65)C2)C1 [Vinblastine] (100 nM) | HCC1937 | -65.7%

Please find the next compound below.
input: Entry Nc1nc(Cl)nc2c1ncn2[C@H]1C[C@H](O)[C@@H](CO)O1 [Cladribine] (10 nM) , system HCC1937: what normalised response was measured?
output: 88.3%

* * *

System: MDA-MB-231
METHOD DESCRIPTION: normalised response (% of control), CellTiter-Glo; higher = more viable cells (100 = DMSO, 0 = benzethonium chloride kill control)
PARTICULARS: incubation time: 72 h
Listing: normalised response of selected compounds
Reply with just the number (in %).

Completed entries (count: 4):
COMPOUND | normalised response / %
CN1CC[C@H](c2c(O)cc(O)c3c(=O)cc(-c4ccccc4Cl)oc23)[C@H](O)C1 [Alvocidib] (10000 nM) | 3.28
Nc1ccn([C@@H]2O[C@H](CO)[C@@H](O)[C@@H]2O)c(=O)n1 [Cytarabine] (10000 nM) | 79.6
Cc1c2oc3c(C)ccc(C(=O)N[C@@H]4C(=O)N[C@H](C(C)C)C(=O)N5CCC[C@H]5C(=O)N(C)CC(=O)N(C)[C@@H](C(C)C)C(=O)O[C@@H]4C)c3nc-2c(C(=O)N[C@@H]2C(=O)N[C@H](C(C)C)C(=O)N3CCC[C@H]3C(=O)N(C)CC(=O)N(C)[C@@H](C(C)C)C(=O)O[C@@H]2C)c(N)c1=O [Dactinomycin] (1000 nM) | 2.02
CN(C)C/C=C/C(=O)Nc1cc2c(Nc3ccc(F)c(Cl)c3)ncnc2cc1O[C@H]1CCOC1 [Afatinib] (1000 nM) | 83.4

input: Would you mind telling me what normalised response value was observed for O=C(c1ccc(C(=O)N2CCC(N3CCCC3)CC2)c(Nc2ccccc2)c1)N1CCC(N2CCCC2)CC1 [UNC1215] (30000 nM) ?
output: 93.9

input: Would you mind telling me what normalised response value was observed for Nc1nc(Cl)nc2c1ncn2[C@H]1C[C@H](O)[C@@H](CO)O1 [Cladribine] (1000 nM) ?
output: 88.4

input: Would you mind telling me what normalised response value was observed for COc1cccc2cc(-c3nc([C@H]4CC[C@H](C(=O)O)CC4)n4ncnc(N)c34)[nH]c12 [OSI-027] (10000 nM) ?
output: 45.7

input: Would you mind telling me what normalised response value was observed for Cc1ccc(F)c(NC(=O)Nc2ccc(-c3cccc4[nH]nc(N)c34)cc2)c1 [Linifanib] (1000 nM) ?
output: 109

* * *

Listing: normalised viability of selected compounds
Tested on: DU-4475
METHOD DESCRIPTION: normalised viability (% of control), CellTiter-Blue; higher = more viable cells (about 100 = DMSO control)
PARTICULARS: incubation time: 72 h

COMPOUND | normalised viability
CS(=O)(=O)c1ccc(C(=O)Nc2ccc(Cl)c(-c3ccccn3)c2)c(Cl)c1 [Vismodegib] (10000 nM) | 123%
CN(C)C/C=C/C(=O)Nc1cc2c(Nc3ccc(F)c(Cl)c3)ncnc2cc1O[C@H]1CCOC1 [Afatinib] (10000 nM) | 67.8%
COc1cc(Nc2ncc3c(n2)-c2ccc(Cl)cc2C(c2c(F)cccc2OC)=NC3)ccc1C(=O)O [MLN8237] (10000 nM) | 21.9%

Please find the next compound below.
input: Would you mind telling me what normalised viability value was observed for Nc1nc(Cl)nc2c1ncn2[C@H]1C[C@H](O)[C@@H](CO)O1 [Cladribine] (1000 nM) ?
output: 40.3%

* * *

Tested on: MDA-MB-231
METHOD DESCRIPTION: normalised viability (% of control), CellTiter-Blue; higher = more viable cells (100 = DMSO, 0 = benzethonium chloride kill control)
PARTICULARS: incubation time: 72 h
Listing: normalised viability of selected compounds
A bare number is not enough; add the unit after it.

Completed entries (count: 5):
COMPOUND | normalised viability
N#CC[C@H](C1CCCC1)n1cc(-c2ncnc3[nH]ccc23)cn1 [Ruxolitinib] (1 nM) | 82.5%
CN(C)C/C=C/C(=O)Nc1cc2c(Nc3ccc(F)c(Cl)c3)ncnc2cc1O[C@H]1CCOC1 [Afatinib] (1 nM) | 92.4%
CO[C@H]1C[C@@H]2CC[C@@H](C)[C@@](O)(O2)C(=O)C(=O)N2CCCC[C@H]2C(=O)O[C@H]([C@H](C)C[C@@H]2CC[C@@H](OC(=O)C(C)(CO)CO)[C@H](OC)C2)CC(=O)[C@H](C)/C=C(\C)[C@@H](O)[C@@H](OC)C(=O)[C@H](C)C[C@H](C)/C=C/C=C/C=C/1C [Temsirolimus] (0.1 nM) | 83.6%
CS(=O)(=O)c1ccc(C(=O)Nc2ccc(Cl)c(-c3ccccn3)c2)c(Cl)c1 [Vismodegib] (1 nM) | 100%
COc1cccc2cc(-c3nc([C@H]4CC[C@H](C(=O)O)CC4)n4ncnc(N)c34)[nH]c12 [OSI-027] (1 nM) | 83.6%

Please find the next compound below.
input: Would you mind telling me what normalised viability value was observed for CC[C@]1(O)C[C@@H]2CN(CCc3c([nH]c4ccccc34)[C@@](C(=O)OC)(c3cc4c(cc3OC)N(C)[C@H]3[C@@](O)(C(=O)OC)[C@H](OC(C)=O)[C@]5(CC)C=CCN6CC[C@]43[C@@H]65)C2)C1 [Vinblastine] (0.1 nM) ?
output: 83.1%
